assay: NCI Yeast Anticancer Drug Screen. Data for the mec2-1 strain (AID 157); conditions: S. cerevisiae mec2-1 strain, at 50.0 µM (retest, dose inferred, filed as 5.0), stronger effect = higher value
This is part of a sample that, as a whole, favours compounds with a hit. Of some 79,000 tested, about 15% had one in any assay.
Readout type: growth inhibition (%)
Give the value, in units of %, as a plain number.

Worked set:
1. C[CH2][Sn]1([CH2]C)[O]C2C(OC)OC3COC(c4ccccc4)OC3C2[O]1 (centres undefined): 70
2. COc1ccc(/C=C\[N+](=O)[O-])cc1OC: 99
3. c1cs[c]([Hg][c]2cccs2)c1: 76

Exercise: What does the data say about its growth inhibition? Entry: CC/C(=C/c1ccc(OC)cc1)[N+](=O)[O-]
Key: 100
